Test system: UACC-257 melanoma
Assay: NCI tumour cell line growth inhibition, 48 h
Where a SMILES comes first, the peptide text is derived from it.
MEASURED_ENDPOINT: TGI

# input What TGI value was documented for this compound, CC1=NN(C(=O)CC(=O)Nc2ccccc2Cl)C(=O)C1N=Nc1ccc(C(=O)O)cc1 (centres undefined) ?
# output > 100 µM

# input Need TGI of CCOC(=O)c1sc2nc(SC)nc3c2c1N=CN3c1ccccc1Cl , thanks.
# output > 100 µM

# input Which TGI is reported for this compound? CN1C2CCC1C(C(O)c1ccccc1[N+](=O)[O-])C(=O)C2 (centres undefined)
# output > 100 µM

# input State the recorded TGI for this entry: NC(CNO)C(=O)O (centres undefined)
# output > 100 µM

# input Please give the measured TGI for this compound: NS(=O)(=O)c1ccc(NNc2c3ccccc3nc3ccccc23)cc1
# output 18 µM

# input Record request: TGI value, item N#Cc1c(-c2ccccc2)c(N=Nc2ccc(F)cc2)c(=O)n2c1[nH]c1ccccc12
# output > 100 µM

# input Need TGI of COc1ccc(CNc2nc3cc(C(F)(F)F)ccc3nc2C(=O)O)cc1OC , thanks.
# output > 100 µM

# input What value of TGI has been recorded for this entry: COc1c2c(cc3c1C(O)N1CC[C@]34[C@H]3O[C@H]3[C@H](OC)C[C@@H]14)OCO2 (some centres undefined)
# output > 100 µM

# input Quick check: TGI of CCCN1CN(C(C(=O)N[C@@H]2C(=O)N3C2SC(C)(C)C3C(=O)O)c2ccccc2)CSC1=S (some centres undefined) ?
# output > 100 µM

# input # lookup: TGI of CC#CS(=O)(=O)c1ccccc1
# output 12.1 µM

# input Can you look up the measured TGI of OCCOCn1cc(Cn2ncc3c(SCc4ccccc4)ncnc32)nn1 for me?
# output > 100 µM

# input Look at this compound and give its reported TGI. CC1=C2C(=O)OCC23C=COC3(C)O1 (centres undefined)
# output > 100 µM

# input Quick check: TGI of CC(NC(=O)C(N)Cc1ccc(O)cn1)C(=O)O (centres undefined) ?
# output > 100 µM

# input # get_value(readout='TGI', item= O=C(Nc1ccccc1)Nc1cccc(-n2cc(-c3ccncc3)c(-c3ccc(O)c(Cl)c3)n2)c1 )
# output 4.91 µM

# input TGI for CC(=O)O[C@H]1C(=O)O[C@@H]2C[C@H]3C(C)=CC(=O)[C@@H](O)[C@]3(C)[C@H]3[C@@]4(O)OC[C@]32[C@@H]1[C@@H](C)[C@H]4O ?
# output 0.137 µM

# input # TGI lookup, item O=[n+]1c2c(n([O-])c3ccccc31)-c1cccc3cccc-2c13
# output > 100 µM

# input Returns the measured TGI for the input compound. Input: CC(=O)OCC1OC(n2c(C)c(N=Nc3ccccc3)c(C)c(C#N)c2=S)C(OC(C)=O)C(OC(C)=O)C1OC(C)=O (centres undefined)
# output > 100 µM

# input Consider the compound CC(=O)OC1CC(O)CC2=CCC3C4CCC(C(C)(O)C(O)CC5COC(=O)C5C)C4(C)CCC3C21C (centres undefined) and give its measured TGI.
# output > 25 µM

# input I'd like to know its TGI. The compound in question is Nc1ncnc2c1nc(-c1ccccc1)n2C1OC(CO)C(O)C1O (centres undefined)
# output > 100 µM

# input TGI lookup needed for O=C1c2ccccc2-c2nc3ccc(O)cc3n21 , thanks.
# output > 100 µM

# input Name the recorded TGI for CCCc1cc2cc(-n3nc(C)c4c3CC(C)(C)CC4=O)cc(NC3CCC(O)CC3)c2c(=O)[nH]1 (centres undefined) .
# output > 100 µM

# input Entry Cc1cc(O)c(C(C)C)cc1CN1CCCCC1 : reported TGI = ?
# output > 100 µM

# input Requested field: TGI. Item: C=C1C(=O)O[C@H]2[C@H]1CC/C(Cn1cc(Cn3ccc4ccccc43)nn1)=C\CC[C@@]1(C)O[C@@H]21
# output 4.41 µM

# input What TGI value was documented for this compound, O=C(C#CP(=O)(O)c1ccccc1)c1ccccc1 ?
# output > 100 µM

# input Fill in the blank: the reported TGI of CN(C)CCCN(c1nc(C(Cl)(Cl)Cl)ns1)c1nc(C(Cl)(Cl)Cl)ns1 is ____.
# output 3.65 µM

# input Look up TGI for this compound: COc1cc2nc(Sc3c([N+](=O)[O-])ncn3C)[nH]c2cc1OC
# output 78.3 µM

# input Endpoint output: TGI of OC(c1cccnc1)C(F)(F)c1nc2ccccc2o1 (centres undefined) . Value?
# output > 100 µM

# input Form field: reported TGI of CCOC(=O)C1CCn2c(nc3c2c(=O)n(C)c(=O)n3C)S1 (centres undefined)
# output > 100 µM

# input Consider the compound OCC1OC(Oc2cc(O)cc(/C=C\c3ccc(O)cc3)c2)C(O)C(O)C1O (centres undefined) and give its measured TGI.
# output > 100 µM

# input Query: TGI; subject: COc1ccc(C(=O)N2CCc3c([nH]c4ccccc34)C2C(=O)O)o1 (centres undefined)
# output > 10 µM

# input Look up TGI for this compound: COc1ccc(N=c2ssc(C(=S)Nc3ccc(OC)cc3)c2S)cc1
# output > 100 µM

# input Look up TGI: CC(C)CC(NC(=O)C(CC(C)C)NC(=O)C(Cc1cnc[nH]1)NC(=O)C(C)NC(=O)C(NC(=O)C(C)NC(=O)C(Cc1c[nH]c2ccccc12)NC(=O)C(CCC(=O)O)NC(=O)C(N)Cc1ccccc1)C(C)C)C(N)=O (centres undefined) (H-FEWAVAHLL-NH2; configuration not given here)
# output > 100 µM

# input Recorded TGI of N.N.N.N.N.N.[I-].[Os] , please.
# output > 100 µM

# input Request the reported TGI associated with COC(=O)C[C@@H]1C(C)(C)[C@@H]2O[C@@]34C[C@@H]2C(=O)[C@]1(C)[C@H]3CC[C@@]1(C)[C@H](c2ccoc2)OC(=O)C[C@]14O
# output > 100 µM

# input Any idea what TGI was measured for COC(=O)CCC(NC(=O)C(C)NC(=O)COC1C(O)C(OC(=O)CCNc2c3ccccc3nc3cccc([N+](=O)[O-])c23)OC(OCc2ccccc2)C1NC(C)=O)C(N)=O (centres undefined) ?
# output > 10 µM

# input What value of measured TGI is listed for O=S(=O)(N=S(c1ccc(Cl)cc1)c1ccc(Cl)cc1)c1ccccc1 ?
# output > 100 µM

# input Query (compound): c1cc(OCCN2CCCCCC2)ccc1CNc1ccc2nc(CCC3CCCCC3)[nH]c2c1 ; field requested: TGI
# output 4.12 µM

# input TGI for O=c1[nH]c(-c2cccc(F)c2)nc2ccccc12 ?
# output > 100 µM

# input Can you share its TGI? I mean this compound: Cc1c(C(=O)CC(=O)C(=O)Nc2ccc(Cl)c(Cl)c2)[n+](=O)c2ccccc2n1[O-]
# output 34.5 µM
